TESTED_ON: CDK9 (human) (UniProt P50750)
Sequence (P50750 whole entry, looked up): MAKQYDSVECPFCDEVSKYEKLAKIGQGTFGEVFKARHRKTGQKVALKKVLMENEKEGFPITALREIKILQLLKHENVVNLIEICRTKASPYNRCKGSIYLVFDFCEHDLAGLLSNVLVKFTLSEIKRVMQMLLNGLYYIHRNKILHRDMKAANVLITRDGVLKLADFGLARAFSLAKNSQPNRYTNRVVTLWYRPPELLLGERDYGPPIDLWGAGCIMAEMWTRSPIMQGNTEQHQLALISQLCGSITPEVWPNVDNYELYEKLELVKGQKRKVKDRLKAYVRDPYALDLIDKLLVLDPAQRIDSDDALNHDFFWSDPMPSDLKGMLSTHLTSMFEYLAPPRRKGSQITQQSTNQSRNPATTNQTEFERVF
METHOD: KINOMEscan competition binding
CONDITION_SUMMARY: compound 10.0 µM
MEASUREMENT_NAME: kinase still bound, per cent of control (%)
A number alone suffices; assume %.

COMPOUND | TESTED_ON | kinase still bound, per cent of control / %
Cc1ccc(NC(=O)c2cccc(C(C)(C)C#N)c2)cc1Nc1ccc2ncn(C)c(=O)c2c1 | CDK9 (human) (UniProt P50750) | 100
CCOc1cc2ncc(C#N)c(Nc3ccc(OCc4ccccn4)c(Cl)c3)c2cc1NC(=O)/C=C/CN(C)C | CDK9 (human) (UniProt P50750) | 94
C=CC(=O)Nc1cccc(Nc2nc(N[C@H]3CC[C@H](N(C)C)CC3)nc3c2ncn3C(C)C)c1 | CDK9 (human) (UniProt P50750) | 100

// `CN(C)C/C=C/C(=O)Nc1cccc(Nc2ncc3c(n2)N(C)c2ccccc2C(=O)N3C)c1` : kinase still bound, per cent of control value = 100
